Target: T1, human IgG antibody (human)
T1 construct: Injected at 10 to 3000 nM over the immobilised ligands in SPR
Experiment: SPR (Biacore), ligand immobilised on CM5

binder	koff (s⁻¹)
DAQQSAFY (Synthetic peptide, immobilised on a CM5 sensor chip; also called immobilized carrier Q) [polypeptide as set forth in SEQ ID NO: 17 (DAQQSAFY)]	0.00013
QQNAFYEI (Synthetic comparative peptide, immobilised on a CM5 sensor chip; also called immobilized carrier AC) [polypeptide as set forth in SEQ ID NO: 26 (QQNAFYEI)]	0.00024
EQQSAFYEILH (Synthetic peptide, immobilised on a CM5 sensor chip; also called immobilized carrier K) [polypeptide as set forth in SEQ ID NO: 11 (EQQSAFYEILH)]	0.00018
DQSAFY (Synthetic peptide, immobilised on a CM5 sensor chip; also called immobilized carrier R) [polypeptide as set forth in SEQ ID NO: 18 (DQSAFY)]	0.00019
EQNAFY (Synthetic peptide, immobilised on a CM5 sensor chip; also called immobilized carrier I) [polypeptide as set forth in SEQ ID NO: 9 (EQNAFY)]	0.00017
EQQNAFYEILH (Synthetic peptide, immobilised on a CM5 sensor chip; also called immobilized carrier C) [polypeptide as set forth in SEQ ID NO: 3 (EQQNAFYEILH)]	0.00017
